# Test system: Target C
# METHOD_SUMMARY: HiBiT protein abundance assay, Target C
# Assay type: cell-based, human
# CONDITION_LABEL: Homo sapiens, K562, 24 h, Table 13A, modified K562 cells
# Description: • Promega Nano-Glo HiBiT Lytic Detection System (cat #N3030) • Coming 384-well TC-treated microplates (cat #3570) • Synthego Engineered Cells Knock-In Clones Cells were maintained in IMIDM with 10% FBS. […] To determine compound effects on protein abundance of each target in Table 12, the percent response for each respective cell line was calculated at each compound concentration as follows: […]
pIC50: −log10 of the molar value.
MEASURED_PARAMETER: pIC50

Query block: Recorded pIC50 of c1nc2c(-c3cn[nH]c3)ccc(-c3ccc(NC4CCNCC4)nn3)c2s1 [Compound 214] , please.
Result block: < 5.00

Query block: Then CN(c1ccc(-c2ccc(-c3ccc(=O)n(C)c3)c3ncsc23)nn1)C1CC(C)(C)NC(C)(C)C1 [Compound 281] ?
Result block: 5.00 to 6.00

Query block: Now the same for [2H]C([2H])([2H])N(c1ccc(-c2ccc(-c3cn[nH]c3)c3ncsc23)nn1)C1CC(C)(C)NC(C)(C)C1 [Compound 231]
Result block: 6.00 to 7.00

Query block: Now this one: CCNC1CCN(c2ccc(-c3ccc(-c4cn[nH]c4)c4ncsc34)nn2)CC1 [Compound 410]
Result block: 5.00 to 6.00

Query block: Moving on to c1n[nH]cc1-c1ccc(-c2ccc(N3CCNCC3)nn2)c2[nH]ncc12 [Compound 241]
Result block: 5.00 to 6.00

Query block: // query: CN(c1ccc(-c2ccc(-c3cnn(C4CC4)n3)c3cn[nH]c23)nn1)[C@@H]1C[C@H]2CC[C@@H](C1)N2 [Compound 312]
Result block: 5.00 to 6.00

Query block: Same for c1nc2c(-c3cn[nH]c3)ccc(-c3ccc(N(C4CC4)C4C[C@H]5CC[C@@H](C4)N5)nn3)c2s1 (stereo partly shown) [Compound 360]
Result block: > 7.00

----------
# METHOD_SUMMARY: Transwell assay for membrane efflux and permeability
# Format: in vitro ADME, Canine
# CONDITION_LABEL: dog; MDCK-BCRP or MDCKII-MDR1 transwell, test compound 1 μM, 2 hours at 37° C.
MEASURED_PARAMETER: Papp at 2 h, 1 μM

Query block: // returns reported Papp at 2 h, 1 μM for input `CN(c1ccc(-c2ccc(-c3cn[nH]c3)cn2)nn1)[C@@H]1C[C@H]2CC[C@@H](C1)N2`
Result block: < 2 ×10⁻⁶ cm/s

Query block: Item: `CN(c1ncc(-c2ccc(-n3cccn3)c3[nH]ncc23)nn1)[C@@H]1C[C@H]2CCC[C@@H](C1)N2`
Result block: 2 to 6 ×10⁻⁶ cm/s

Query block: How about this molecule: `c1nc2c(-c3cn[nH]c3)ccc(-c3ccc(N[C@@H]4C[C@H]5CCC[C@@H](C4)N5)nn3)c2s1`
Result block: < 2 ×10⁻⁶ cm/s

Query block: Also, CN(c1ccc(-c2ccc(-c3cn[nH]c3)c3ncsc23)nn1)[C@@H]1C[C@H]2CC(F)(F)[C@@H](C1)N2 (stereo in doubt) please.
Result block: 2 to 6 ×10⁻⁶ cm/s

Query block: Field entry: `COc1cc(-c2ccc(-c3ccc(N(C)C4CC(C)(C)NC(C)(C)C4)nn3)c3scnc23)cnn1`
Result block: 2 to 6 ×10⁻⁶ cm/s

Query block: Likewise for `CN(c1ccc(-c2cc(F)c(-c3cn[nH]c3)c3cn[nH]c23)nn1)[C@@H]1C[C@H]2CC[C@@H](C1)N2` ?
Result block: < 2 ×10⁻⁶ cm/s

Query block: Can you handle CC(C)(C)NC1CCN(c2ccc(-c3ccc(-c4cn[nH]c4)c4ncsc34)nn2)C1 (centres unmarked) next?
Result block: 2 to 6 ×10⁻⁶ cm/s

Query block: And for `CN(c1ccc(-c2ccc(-c3cn[nH]c3)c3ncsc23)nn1)[C@@H]1C[C@H]2CCC[C@@H](C1)N2` ?
Result block: < 2 ×10⁻⁶ cm/s

Query block: Can you check `CN(c1ccc(-c2ccc(-c3cn[nH]c3)c(F)n2)nn1)[C@@H]1C[C@H]2CC[C@@H](C1)N2` next?
Result block: < 2 ×10⁻⁶ cm/s

Query block: Try this molecule too: `CN(c1ccc(-c2ccc(-c3cnn(C)c3)c3cn[nH]c23)nn1)C1CCNCC1`
Result block: < 2 ×10⁻⁶ cm/s

Query block: Okay, and `COc1nc(-c2ccc(OC3CC(C)(C)NC(C)(C)C3)nn2)ccc1-c1cn[nH]c1` ?
Result block: 2 to 6 ×10⁻⁶ cm/s

Query block: Same for `CN(c1ccc(-c2cc(F)c(-c3cnn(C)c3)c3cn[nH]c23)nn1)[C@@H]1C[C@H]2CC[C@@H](C1)N2`
Result block: < 2 ×10⁻⁶ cm/s

Query block: Query `CN(c1ncc(-c2ccc(-n3ccnn3)c3[nH]ncc23)nn1)[C@@H]1C[C@H]2CCC[C@@H](C1)N2` next
Result block: < 2 ×10⁻⁶ cm/s

Query block: `[2H]C([2H])([2H])N(c1ccc(-c2ccc(-c3cn[nH]c3)c3ncsc23)nn1)[C@@H]1C[C@H]2CCC[C@@H](C1)N2` , same question.
Result block: < 2 ×10⁻⁶ cm/s

----------
# Test system: Target C
# METHOD_SUMMARY: HiBiT protein abundance assay, Target C
# Type: cell-based, human
# CONDITION_LABEL: Homo sapiens, K562, 24 h, Table 13A, modified K562 cells
MEASURED_PARAMETER: IC50

Query block: Reported IC50, molecule `Cn1cc(-c2c(F)cc(-c3ccc(NC4CCNCC4)nn3)c3[nH]ncc23)cn1` : ____
Result block: 1000 to 10000 nM

Query block: What do we get for `CCN(c1ccc(-c2ccc(-c3cn[nH]c3)c3cn[nH]c23)nn1)[C@@H]1C[C@H]2CC[C@@H](C1)N2` ?
Result block: 100 to 1000 nM

Query block: Here is the next molecule: `CN(c1ccc(-c2ccc(-n3cccn3)c3cc[nH]c23)nn1)[C@@H]1C[C@H]2CC[C@@H](C1)N2`
Result block: 1000 to 10000 nM

Query block: // repeat for `CN(c1ccc(-c2ccc(-c3cnc(=O)[nH]c3)c3scnc23)nn1)C1CC(C)(C)NC(C)(C)C1` and report
Result block: 100 to 1000 nM

Query block: And what about the molecule `c1nc2c(-c3cn[nH]c3)ccc(-c3ccc(N4CCNCC4)nn3)c2s1` ?
Result block: 1000 to 10000 nM

Query block: Follow-up item: CNCC1CCN(c2ncc(-c3ccc(-c4cn[nH]c4)c4ncsc34)nn2)C1 (stereo not shown)
Result block: > 10000 nM

Query block: // next record `[2H]C([2H])([2H])N(c1ccc(-c2ccc(-c3cn[nH]c3)c3ncsc23)nn1)C1CCNCC1`
Result block: 1000 to 10000 nM

Query block: Now this one: `Cc1ncc(-c2ccc(-c3cnc(N(C)[C@@H]4C[C@H]5CCC[C@@H](C4)N5)nn3)c3scnc23)s1`
Result block: < 100 nM

Query block: Same lookup for `c1cnn(-c2ccc(-c3cnc(N[C@@H]4C[C@H]5CC[C@@H](C4)N5)nn3)c3cn[nH]c23)c1` , please.
Result block: < 100 nM

Query block: Further, for `CN(c1ncc(-c2ccc(-c3cn[nH]c3)c3ncsc23)nn1)C1CC(C)(C)NC(C)(C)C1` ?
Result block: 100 to 1000 nM

Query block: Let us now turn to `CN(c1ccc(-c2ccc(-n3cccn3)c3[nH]ncc23)nn1)C1CC(C)(C)NC(C)(C)C1`
Result block: 100 to 1000 nM

Query block: What would you report for `Cn1ncc(-c2ccc(-c3ccc(O[C@@H]4C[C@H]5CC[C@@H](C4)N5)nn3)c3[nH]ncc23)n1` ?
Result block: 100 to 1000 nM

Query block: How about `CN(c1ncc(-c2ccc(-n3cccn3)c3[nH]ncc23)nn1)[C@@H]1C[C@H]2CCC[C@@H](C1)N2` ?
Result block: < 100 nM

Query block: Another molecule to look at: `CN(c1ccc(-c2ccc(-c3cn[nH]c3)c3ncsc23)nn1)C1CCNCC1`
Result block: 1000 to 10000 nM

Query block: Try the molecule `CC1(C)CC(N(c2ccc(-c3ccc(-c4cn[nH]c4)c4ncsc34)nn2)C2CC2)CC(C)(C)N1`
Result block: 1000 to 10000 nM

Query block: Another molecule: `CN(c1ccc(-c2ccc(-c3cnn(C)c3)c3cn[nH]c23)nn1)[C@@H]1C[C@H]2CC[C@@H](C1)N2`
Result block: < 100 nM

----------
# Test system: HTT
# METHOD_SUMMARY: Splicing RT-qPCR assay, HTT mRNA canonical junction (CJ) and alternative junction (AJ)
# Type: cell-based, human
# CONDITION_LABEL: Homo sapiens, RT-qPCR panel, canonical junction mRNA; compound concentration having 50% response in CJ decrease; read-out: HTT IC50 (decrease in CJ mRNA levels)
pIC50: −log10 of the molar value.
MEASURED_PARAMETER: pIC50

Query block: Give HTT pIC50 for c1n[nH]cc1-c1ccc(-c2ccc(OC3CCNCC3)nn2)c2[nH]ncc12 [Compound 230]
Result block: < 5.00

Query block: Next entry: CC(C)(C)[C@H]1CN(c2ncc(-c3ccc(-n4cccn4)c4[nH]ncc34)nn2)CCN1 [Compound 581]
Result block: > 7.00

Query block: Can you check CN(c1ccc(-c2ccc(-n3cccn3)c3cn[nH]c23)nn1)C1CCNCC1 [Compound 264] next?
Result block: < 5.00

Query block: Follow-up entry: c1cnn(-c2ccc(-c3ccc(N4CCC(NC5CC5)C4)nn3)c3[nH]ncc23)c1 (centres unmarked) [Compound 347]
Result block: < 5.00

Query block: Next compound up: c1nc2c(-c3cn[nH]c3)ccc(-c3cnc(N4CCN[C@@H](C5CC5)C4)nn3)c2s1 [Compound 552]
Result block: 6.00 to 7.00

Query block: Entry to check: CN(c1ccc(-c2ccc(-c3cnn(C)c3)c3scnc23)nn1)C1CC(C)(C)NC(C)(C)C1 [Compound 175]
Result block: < 5.00

Query block: Then this compound: c1n[nH]cc1-c1ccc(-c2ccc(N3CC4(CCCNC4)C3)nn2)c2[nH]ncc12 [Compound 218]
Result block: < 5.00

Query block: Thanks! And c1nc2c(-c3cn[nH]c3)ccc(-c3cnc(N[C@@H]4C[C@H]5CC[C@@H](C4)N5)nn3)c2s1 [Compound 422] ?
Result block: > 7.00
